Data origin: patent US20050124665A1

Field: pIC50. Provide a value for each of the compounds that follow.
System: Sendai virus
Assay: Effect on the replication of Sendai virus (virus yield by HAU titration in 37RC cells)
Assay type: cell-based
Conditions: Respirovirus muris, in Primates; at 24 hours after infection; monkey kidney 37RC cells infected with SV (5 HAU/10^5 cells); virus yield in supernatant by HAU titration; read-out: ID50 (the 50% inhibitory dose/concentration)
One number for each entry, as −log10 of the molar value.

{"compound": "CCCCCCCCC/C=C/CC1CC=CC1=O (stereo not shown) [CTC-85, ((E)-5-Dodec-2-enyl)-cyclopent-2-enone]", "reported result": 5.00}
{"compound": "CCCC/C=C\\CC1CC=CC1=O (stereo not shown) [CTC-74, ((Z)-5-Hept-2-enyl)-cyclopent-2-enone]", "reported result": 6.00}

Below are some compounds; for each one, tell me its pIC50.
1. CCCCCCCCC/C=C\CC1CC=CC1=O (stereo not shown) [CTC-84, ((Z)-5-Dodec-2-enyl)-cyclopent-2-enone]
2. CCCCCC/C=C\CC1CC=CC1=O (stereo not shown) [CTC-83, ((Z)-5-Non-2-enyl)-cyclopent-2-enone]

Result:
1. 5.15
2. 5.00
